- Test system: P388
- EXPERIMENTAL_DETAILS: Antitumor activity was determined against the ip implanted P388 leukemia in mice by change in […] at 60 mg/kg (1-5qd treatment schedule) dosage
- Format: functional, Mus musculus
- CONDITION_INFO: route intraperitoneal
As shown below, each of these molecules has a reported Weight change value.
Your answer is read as g mouse-1, so omit the unit and give the number.

Solved entries:
- MOLECULE: "CCCCCCCCCCCCCCCC(=O)OCC(COP(=O)(O)OP(=O)(O)OC[C@H]1O[C@@H](n2ccc(N)nc2=O)[C@@H](O)[C@@H]1O)OC(=O)CCCCCCCCCCCCCCC (mixture of isomers)"
  UNITS_LABEL: "g mouse-1"
  Weight change: -3.27
- MOLECULE: "CCCCCCCCCCCCCCCCCCOCC(COP(=O)(O)OP(=O)(O)OC[C@H]1O[C@@H](n2ccc(N)nc2=O)[C@@H](O)[C@@H]1O)OC (mixture of isomers)"
  UNITS_LABEL: "g mouse-1"
  Weight change: 0.04
- MOLECULE: "CCCCCCCCCCCCCCCCCCOCC(COP(=O)(O)OP(=O)(O)OC[C@H]1O[C@@H](n2ccc(N)nc2=O)[C@@H](O)[C@@H]1O)OC(=O)CCCCCCCCCCCCCCC (mixture of isomers)"
  UNITS_LABEL: "g mouse-1"
  Weight change: -0.12

Here is another molecule to look at.
Request: Field request: Weight change | item: CCCCCCCCCCCCCCCC(=O)OC[C@H](COP(=O)(O)OP(=O)(O)OC[C@H]1O[C@@H](n2ccc(N)nc2=O)[C@@H](O)[C@@H]1O)OC(=O)CCCCCCCCCCCCCCC
Result: -1.92
